Provenance of the data: ChEMBL document CHEMBL3244087

Catalogue of inhibition (INH) readings, one per entry.
- Tested on: Rattus norvegicus
- EXPERIMENT DESCRIPTION: Inhibition of prolactin release in reserpinized rat assessed as reduction in serum prolactin level at 2 mg, ip after 1 hr post dose by radioimmunoassay relative to untreated control
- Format: functional
QUANTITY: inhibition (INH)

MOLECULE	RESULT
COc1cc(C2CC(CC#N)CN(C)C2)c(OC)cc1C (centres undefined)	-13%
CCOC(=O)C1CC(c2cc(OC)c(C)cc2OC)CN(C)C1 (centres undefined)	5%
CCOC(=O)C1=CC(c2cc(OC)c(C)cc2OC)CN(C)C1 (centres undefined)	-5%
COc1cc(C2CC(CO)CN(C)C2)c(OC)cc1C (centres undefined)	-2%
